Target: Tyrosinase (Agaricus bisporus) (UniProt O42713);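 also: inhibition measured at 10 min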
Sequence (whole entry): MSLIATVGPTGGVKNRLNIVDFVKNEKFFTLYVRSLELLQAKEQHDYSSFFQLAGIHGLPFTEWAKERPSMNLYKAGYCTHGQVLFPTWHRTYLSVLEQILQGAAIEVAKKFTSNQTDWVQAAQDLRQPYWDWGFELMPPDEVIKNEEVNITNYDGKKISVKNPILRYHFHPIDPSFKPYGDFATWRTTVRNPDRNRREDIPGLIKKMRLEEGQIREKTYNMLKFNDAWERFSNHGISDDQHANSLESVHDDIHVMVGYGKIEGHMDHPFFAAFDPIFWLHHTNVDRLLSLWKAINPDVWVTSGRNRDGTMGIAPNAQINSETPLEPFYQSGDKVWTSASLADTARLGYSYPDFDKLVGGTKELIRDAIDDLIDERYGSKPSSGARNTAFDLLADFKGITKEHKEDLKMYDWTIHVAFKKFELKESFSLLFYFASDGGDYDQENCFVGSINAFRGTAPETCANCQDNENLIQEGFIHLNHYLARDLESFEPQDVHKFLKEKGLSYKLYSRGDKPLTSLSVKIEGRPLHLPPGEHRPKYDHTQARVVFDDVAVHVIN
Conditions: at 1 mM
For each of the compounds below, state its inhibition.
Give the value, in units of %, as a plain number.

Provide the documented inhibition with Tyrosinase (Agaricus bisporus) (UniProt O42713) as the system for Cc1cccc(C(=O)O)c1O
96

// next record CC(C)c1cccc(C(=O)O)c1O
91

Then what about the compound CC(=O)NO [ACETOHYDROXAMIC ACID] ?
-2

Try this compound next: Oc1ncccn1
92

Consider next the compound Nc1cc(=O)nc(N)[nH]1 in the same way.
18

Next compound: O=C(O)c1ccc[nH]1
69

# iterate: Oc1ccccc1-c1nc2ccccc2s1
34

And then Oc1cc(O)nc(S)n1 , what is it?
99

Next compound up: Cc1cc(=O)c(O)c(CCl)o1
96

Cool, now Oc1cccnc1O
-9

Another: O=C(O)c1ccc(C(=O)O)nc1
98

----------
Biological target: Nitric oxide synthase, inducible (Mus musculus) (UniProt P29477);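 also: recombinant enzyme, activity read out colorimetrically after 40 min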
Sequence (P29477 whole entry): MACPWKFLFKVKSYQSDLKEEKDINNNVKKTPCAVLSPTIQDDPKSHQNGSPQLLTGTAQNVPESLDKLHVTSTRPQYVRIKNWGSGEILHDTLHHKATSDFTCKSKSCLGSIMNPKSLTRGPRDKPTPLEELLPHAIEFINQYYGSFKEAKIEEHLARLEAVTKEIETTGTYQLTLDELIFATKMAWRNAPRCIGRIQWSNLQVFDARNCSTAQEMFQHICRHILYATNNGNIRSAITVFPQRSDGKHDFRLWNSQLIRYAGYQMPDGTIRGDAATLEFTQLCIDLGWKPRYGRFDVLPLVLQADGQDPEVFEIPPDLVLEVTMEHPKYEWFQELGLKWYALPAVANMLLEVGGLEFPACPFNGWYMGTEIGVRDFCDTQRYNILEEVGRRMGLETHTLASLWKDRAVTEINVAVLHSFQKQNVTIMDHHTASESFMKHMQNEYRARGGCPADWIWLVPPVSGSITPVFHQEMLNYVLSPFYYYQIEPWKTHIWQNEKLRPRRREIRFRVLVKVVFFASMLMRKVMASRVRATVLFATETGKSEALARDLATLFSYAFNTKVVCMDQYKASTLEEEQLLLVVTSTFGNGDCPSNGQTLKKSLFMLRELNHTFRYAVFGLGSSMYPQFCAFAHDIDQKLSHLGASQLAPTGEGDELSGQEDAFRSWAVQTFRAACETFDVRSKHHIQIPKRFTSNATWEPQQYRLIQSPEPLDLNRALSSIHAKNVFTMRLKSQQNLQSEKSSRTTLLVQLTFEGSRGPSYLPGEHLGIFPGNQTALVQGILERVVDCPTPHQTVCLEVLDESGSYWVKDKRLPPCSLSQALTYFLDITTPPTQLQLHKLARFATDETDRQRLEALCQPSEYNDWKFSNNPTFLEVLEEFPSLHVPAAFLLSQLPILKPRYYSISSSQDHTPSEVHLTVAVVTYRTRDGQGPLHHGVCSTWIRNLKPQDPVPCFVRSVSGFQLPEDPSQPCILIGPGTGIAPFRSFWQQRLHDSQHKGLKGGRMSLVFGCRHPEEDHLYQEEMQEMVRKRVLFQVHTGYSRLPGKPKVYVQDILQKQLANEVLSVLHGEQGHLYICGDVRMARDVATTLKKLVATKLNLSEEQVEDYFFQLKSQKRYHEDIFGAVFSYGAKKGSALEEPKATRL
Settings: at 1 mM
Returns one of Yes or No; Yes when inhibition is >= 10%.

Hello, I need to know if Oc1cccc2cccnc12 has measured inhibition not below 10%. Thanks!
No

Then CC(=O)CC(C)=O ?
No

Next record, please: O=C(O)c1ccc(O)cc1O
Yes

Item: O=C(O)c1ccccn1
No

And then Nc1cc(=O)nc(N)[nH]1 , what is it?
No

Next entry: O=c1cc(CO)occ1O
No

# iterate: O=C(O)c1cccc(O)c1O
No

Quick one: O=C(O)c1nccc2ccccc12
Yes

Now try Cc1cccc(C(=O)O)c1O .
Yes

Query c1cnc2c(c1)ccc1cccnc12 next
Yes

Likewise for c1ccc(CNCc2ccccn2)nc1 ?
No

Follow-up entry: Cc1occc(=O)c1O
No

Same for Nc1[nH]cnc2ncnc1-2
No

Likewise for Oc1cccnc1O ?
No

Check O=C(O)c1nc(Cl)ccc1Cl too.
Yes

# iterate: Cc1occ(O)c(=O)c1C(=O)O
Yes

Try the molecule COc1ccccc1O
Yes

Another molecule to look at: Oc1ncccn1
No

What would you report for Cc1nc(O)cc(O)n1 ?
No

Next up: NC(=O)c1ccccc1O
Yes

Same question for CC(=O)NO [ACETOHYDROXAMIC ACID] please.
No

For O=C(O)c1cccc(O)n1 then?
No

Subsequent entry: O=c1cc(CCl)occ1O
Yes

// same read-out, input: Cc1ccc(C(=O)O)c(O)c1
Yes

Now give it for Nc1cccc(C(=O)O)c1O too.
Yes

Same again, this time with Cc1ccc(S(N)(=O)=O)cc1
No

----------
Biological target: 72 kDa type IV collagenase (Homo sapiens, UniProt P08253);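 also: recombinant human enzyme, inhibition read after a 30 min incubation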
Sequence (P08253 110-660 limits assumed): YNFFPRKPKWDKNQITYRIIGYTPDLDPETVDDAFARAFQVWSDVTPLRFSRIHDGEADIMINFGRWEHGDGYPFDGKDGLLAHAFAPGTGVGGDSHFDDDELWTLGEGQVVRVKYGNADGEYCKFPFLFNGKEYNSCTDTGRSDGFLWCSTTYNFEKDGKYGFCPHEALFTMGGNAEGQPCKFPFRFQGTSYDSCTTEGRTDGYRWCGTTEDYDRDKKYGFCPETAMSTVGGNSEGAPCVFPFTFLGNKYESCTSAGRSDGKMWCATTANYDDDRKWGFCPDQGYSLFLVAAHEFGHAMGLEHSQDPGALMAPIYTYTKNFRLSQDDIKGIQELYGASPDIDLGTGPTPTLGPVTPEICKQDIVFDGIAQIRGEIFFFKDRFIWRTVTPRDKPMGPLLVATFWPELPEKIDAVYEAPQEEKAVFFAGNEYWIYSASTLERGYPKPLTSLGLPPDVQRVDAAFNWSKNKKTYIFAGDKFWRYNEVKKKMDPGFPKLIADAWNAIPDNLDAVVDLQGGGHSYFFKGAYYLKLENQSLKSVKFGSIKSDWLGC
Settings: at 1 mM
ATTRIBUTE_MEASURED: inhibition (%)
Supply the numeric figure in %, leaving out any unit text.

Item under review: Cc1cc(=O)c(O)c(CO)o1 . Reported inhibition?
45

Do the same for O=C(O)c1cc(O)ccc1O [GENTISIC ACID] please
0

Can you check O=C(O)c1ccc(F)cc1O next?
-8

Proceed to Cc1cc(=O)c(O)co1
37

Lookup O=C1C=C(O)C(=O)c2ccccc21
84

Param item: Cc1occc(=O)c1O
38

Now consider O=C(O)c1cccc(C(=O)O)n1 and answer again.
-6

Ok, now NC(=O)c1ccccc1O
-1

// same read-out, input: Nc1cccc2cccnc12
51

Also, Nc1cccc(C(=O)O)c1O please.
70

----------
Biological target: Lethal factor (Bacillus anthracis) (UniProt P15917)
Sequence (P15917 whole entry): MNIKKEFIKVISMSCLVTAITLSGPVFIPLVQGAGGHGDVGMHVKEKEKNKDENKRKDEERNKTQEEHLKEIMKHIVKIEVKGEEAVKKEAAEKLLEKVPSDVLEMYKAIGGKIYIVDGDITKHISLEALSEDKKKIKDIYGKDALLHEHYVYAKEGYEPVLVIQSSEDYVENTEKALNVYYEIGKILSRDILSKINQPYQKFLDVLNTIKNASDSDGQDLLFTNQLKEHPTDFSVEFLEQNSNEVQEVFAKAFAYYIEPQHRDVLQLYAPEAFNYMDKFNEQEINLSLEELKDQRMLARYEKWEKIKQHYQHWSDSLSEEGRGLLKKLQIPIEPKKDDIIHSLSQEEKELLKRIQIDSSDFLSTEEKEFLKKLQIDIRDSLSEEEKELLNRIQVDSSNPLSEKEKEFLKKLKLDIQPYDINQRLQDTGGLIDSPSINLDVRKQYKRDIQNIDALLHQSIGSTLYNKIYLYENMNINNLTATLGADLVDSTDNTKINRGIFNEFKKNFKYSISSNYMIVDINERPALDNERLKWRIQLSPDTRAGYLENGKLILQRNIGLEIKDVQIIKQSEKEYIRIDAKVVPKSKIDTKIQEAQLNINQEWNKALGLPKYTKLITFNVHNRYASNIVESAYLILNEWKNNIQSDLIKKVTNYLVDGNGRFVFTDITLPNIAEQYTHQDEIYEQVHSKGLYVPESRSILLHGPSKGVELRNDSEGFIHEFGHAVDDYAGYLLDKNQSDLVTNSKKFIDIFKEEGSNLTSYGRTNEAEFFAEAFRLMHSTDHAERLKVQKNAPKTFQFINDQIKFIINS
Conditions: at 1 mM
ATTRIBUTE_MEASURED: inhibition (%)
Give the value, in units of %, as a plain number.

Give its inhibition value. Item: Cc1cc(=O)c(O)c(CCl)o1
21

Same lookup for Cc1ccc(O)c(C(=O)O)c1 , please.
56

Now the compound Cc1cc(O)nc(O)n1
8

Okay, and OCc1ccnc(-c2cc(CO)ccn2)c1 ?
9

Could you do the same for Nc1[nH]cnc2ncnc1-2 , please?
16

Same for CCc1occc(=O)c1O
25

Next entry: O=C(O)c1cccc[n+]1[O-]
40

Cool, now O=C(O)c1c(O)cccc1O
15

Cool, now Oc1ccccc1O
47

Next up: CCCCc1ccc(C(=O)O)nc1
29

What do we get for Oc1nccc(S)n1 ?
22

What would you report for Oc1coccc1=S ?
101

Record: O=C(O)c1ccc(O)c(O)c1
21

What about this compound? O=C(O)c1ccc(C(=O)O)nc1
18

Same lookup for O=c1occcc1O , please.
21

And what about the compound CC(C)c1cccc(C(=O)O)c1O ?
-3

Subsequent entry: CCn1ccc(=S)c(O)c1C
60

Consider next the compound C1CNCCNCCN1 in the same way.
59

Then what about the compound O=c1cccccc1O ?
55

Also Cc1occc(=S)c1O , if possible.
96

Record: O=C(O)c1cccc(C(=O)O)n1
83

// repeat for Nc1cccc2cccnc12 and report
30

Could you do the same for CCC(C(C)=O)C(C)=O , please?
4

Moving on to O=C(O)c1ccc(F)cc1O
17

Also, Nc1ccc2cccc(O)c2n1 please.
59

Would you mind doing Oc1cccc2cccnc12 as well?
56

Further, for O=C(O)c1cccc(O)n1 ?
81

Request: CC(C)c1cccc(=O)c(O)c1
66

What do you have for Cc1ccc(C(=O)O)c(C(=O)O)n1 ?
43

Now consider O=C(O)c1ccccc1O .
6

What about c1cnc2c(c1)ccc1cccnc12 ?
67

Would you kindly repeat that for O=C(O)c1cccc(Br)n1 ?
75

// next record Cc1c(O)c(=S)ccn1C
51

Subsequent entry: Cc1cc(=O)c(O)co1
22

Check [O-][n+]1cccc2cccc(O)c21 too.
59

What about O=C(O)c1ccc(O)cc1O ?
7

Same question for O=C(O)c1ccccn1 please.
49

Please do the same for Cc1cc(=O)c(O)c(CO)o1 as well.
14

Same question for COc1ccccc1S please.
19

Let us now turn to O=C(O)c1ncccc1O
43

Try the compound O=c1ccocc1O
29

Same thing, different compound: O=C(O)c1ccc[nH]1
11

Next compound up: O=C(O)c1cc(F)ccc1O
16

// repeat for Cn1cccc(O)c1=O and report
1

Note, next up: CCc1c(O)c(=S)ccn1CC
55

Entry to check: Nc1cc(=O)nc(N)[nH]1
34

Subsequent entry: O=C(O)c1cccc(O)c1O
9

Next: COc1ccccc1O
13

What would you report for CC(=O)C(C)C(C)=O ?
-7

Next record, please: CC(=O)CC(C)=O
5

Try this compound next: O=C(O)c1cccc(=O)n1O
47

Entry O=c1cc(CO)occ1O please
33

Lookup [O-][n+]1ccccc1S
23

Thanks! And Nc1cccc(C(=O)O)c1O ?
90

Could you do the same for Oc1ncccn1 , please?
28

Try this compound next: Cc1cc(=O)[nH]c(=S)[nH]1
29

For CC(=O)C1CCCC1=O (configuration not stated) then?
6

Another: NC(=O)c1ccccc1O
0

Please give the result for Oc1cc(O)nc(S)n1 too.
18

Entry to check: Cc1cc(C)nc(S)n1
15

Follow-up entry: Cc1ccc(C(=O)O)c(O)c1
11

What about this compound? Oc1ccc(Cl)c2cccnc12
44

Likewise for O=C(O)c1ccc2cccc(O)c2n1 ?
89

Record: Nc1ccc(C(=O)O)c(O)c1
30

Try this compound too: Cn1cccc(O)c1=S
56

Then Cc1occc(=O)c1O ?
19

Would you kindly repeat that for Cc1cc(O)nc(C)n1 ?
18

----------
Target: Polyunsaturated fatty acid 5-lipoxygenase (Homo sapiens) (UniProt P09917)
Sequence (P09917 whole entry): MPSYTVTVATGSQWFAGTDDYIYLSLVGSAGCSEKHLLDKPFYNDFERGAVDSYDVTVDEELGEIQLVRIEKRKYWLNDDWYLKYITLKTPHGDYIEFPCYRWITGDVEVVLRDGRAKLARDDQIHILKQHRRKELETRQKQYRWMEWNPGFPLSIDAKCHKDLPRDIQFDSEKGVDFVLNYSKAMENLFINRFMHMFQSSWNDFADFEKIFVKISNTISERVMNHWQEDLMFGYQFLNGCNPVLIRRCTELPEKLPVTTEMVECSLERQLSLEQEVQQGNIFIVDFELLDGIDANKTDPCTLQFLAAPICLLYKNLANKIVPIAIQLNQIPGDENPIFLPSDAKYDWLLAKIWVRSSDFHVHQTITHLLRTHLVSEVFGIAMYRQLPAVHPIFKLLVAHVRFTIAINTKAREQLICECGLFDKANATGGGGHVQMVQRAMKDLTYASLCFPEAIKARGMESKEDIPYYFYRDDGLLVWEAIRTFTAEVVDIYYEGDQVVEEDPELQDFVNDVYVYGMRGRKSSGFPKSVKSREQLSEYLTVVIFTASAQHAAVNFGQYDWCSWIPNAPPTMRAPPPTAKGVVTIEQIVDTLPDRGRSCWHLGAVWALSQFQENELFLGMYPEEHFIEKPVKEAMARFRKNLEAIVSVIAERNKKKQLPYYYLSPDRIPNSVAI
Test: Inhibition of human recombinant 5-lipoxygenase at 1 mM after 10 mins by fluorescence assay
ATTRIBUTE_MEASURED: inhibition (%)
Give just the number in %; leave the unit off.

What does the data say about its inhibition? Entry: Oc1ncccn1
8

Would you mind doing C1CNCCNCCN1 as well?
25

What do you get for Cc1cc(=O)[nH]c(=S)[nH]1 ?
70

// next record O=C(O)c1ccc(O)c(O)c1
86

What about CCCCc1ccc(C(=O)O)nc1 ?
23

CC(=O)C(C)C(C)=O ?
64

Next entry: Nc1ccc(C(=O)O)c(O)c1
60

Now this one: O=C(O)c1ccc[nH]1
48

Queued: Cc1cccc(C(=O)O)n1
21

Please answer likewise for Cc1occc(=S)c1O
91

Quick one: O=C(O)c1nccc2ccccc12
18

# repeat for O=C(O)c1ccc(C(=O)O)nc1
31

Subsequent entry: Oc1cc(O)nc(S)n1
72

Also, Nc1ccc2cccc(O)c2n1 please.
66

# iterate: O=C(O)c1cccc[n+]1[O-]
31

Lookup O=C(O)c1cccc2cccnc12
23

Also check CC(C)c1cccc(C(=O)O)c1O
-3

And what about the compound Nc1[nH]cnc2ncnc1-2 ?
9

// next record CCc1c(O)c(=O)ccn1CC
83

Next compound up: Cc1cc(C)nc(S)n1
80

// same read-out, input: Cc1cc(O)nc(C)n1
26

Next up: CS(=O)(=O)Nc1cccc2cccnc12
13

How about Cc1c(O)c(=S)ccn1C ?
95

Now the same for O=C(O)c1cccc(Br)n1
29

Here is the next compound: O=C(O)c1cc(O)ccc1O
86

Param item: Cc1ccc2cccc(O)c2n1
59
